- assay notes: Single and repeat dose plasma and tissue pharmacokinetics in male C57BL/6 mice
- Format: in vivo, mouse
- stated conditions: male, C57BL/6, mouse, liver, po, 20 mg/kg, mouse liver; QD × 4; value in parentheses: timepoint 0.25 h samples after reanalysis
property measured: Cmax
Write the numeric value and append its unit.

Incoming: # query: Cmax of entry CC(C)(CCCCc1ccc(CCCCC(C)(C)C(=O)O)cc1)C(=O)O
Outgoing: 46600 ng/g

* * *

- assay notes: Single and repeat dose plasma and tissue pharmacokinetics in male C57BL/6 mice
- Assay type: in vivo, mouse
- stated conditions: male, C57BL/6, mouse, plasma, po, 20 mg/kg/day, mouse plasma; 20 mg/kg/day PO; single dose (QD × 1)
property measured: AUC(0-t) (µg·h/mL)
Field: numeric (µg·h/mL). Do not append units.

1) CC(C)(CCCCc1cccc(CCCCC(C)(C)C(=O)O)c1)C(=O)O [Compound I-32] ... 240

Would you kindly look at the next entry?
Incoming: # query: AUC(0-t) of entry CC(C)(CCCCc1ccc(CCCCC(C)(C)C(=O)O)cc1)C(=O)O [Compound I-1]
Outgoing: 1380

* * *

- assay notes: Single and repeat dose plasma and tissue pharmacokinetics in male C57BL/6 mice
- Type: in vivo, mouse
- stated conditions: male, C57BL/6, mouse, brain, po, 20 mg/kg, mouse brain; QD × 4; value in parentheses marked * (reanalysis per footnote of Tables 8-9)
property measured: Cmax

Incoming: # query: Cmax of entry CC(C)(CCCCc1ccc(CCCCC(C)(C)C(=O)O)cc1)C(=O)O [Compound I-1]
Outgoing: 1390 ng/g

* * *

Measured Tmax by item
- assay notes: Single and repeat dose plasma and tissue pharmacokinetics in male C57BL/6 mice
- Format: in vivo, mouse
- stated conditions: male, C57BL/6, mouse, brain, po, 20 mg/kg/day, mouse brain; 20 mg/kg/day PO; single dose (QD × 1)
Field: numeric (h). Do not append units.

1) CC(C)(CCCCc1cccc(CCCCC(C)(C)C(=O)O)c1)C(=O)O ... 2

Would you kindly look at the next entry?
Incoming: # query: Tmax of entry CC(C)(CCCCc1ccc(CCCCC(C)(C)C(=O)O)cc1)C(=O)O
Outgoing: 2

* * *

- assay notes: Single and repeat dose plasma and tissue pharmacokinetics in male C57BL/6 mice
- Type: in vivo, mouse
- stated conditions: male, C57BL/6, mouse, plasma, po, 20 mg/kg/day, mouse plasma; 20 mg/kg/day PO; 4 consecutive days (QD × 4)
property measured: Tmax

1. CC(C)(CCCCc1ccc(CCCCC(C)(C)C(=O)O)cc1)C(=O)O ... 0.25 h

Would you kindly look at the next entry?
Incoming: # query: Tmax of entry CC(C)(CCCCc1cccc(CCCCC(C)(C)C(=O)O)c1)C(=O)O
Outgoing: 4 h

* * *

- assay notes: Single and repeat dose plasma and tissue pharmacokinetics in male C57BL/6 mice
- Assay type: in vivo, mouse
- stated conditions: male, C57BL/6, mouse, plasma, po, 20 mg/kg/day, mouse plasma; 20 mg/kg/day PO; single dose (QD × 1)
- Description: Materials and methods. The study involved two arms: a single dose pharmacokinetic study and a 4-day repeated-dose pharmacokinetic study. For each arm, 56 inbred male C57BL/6 mice, aged at 6-7 week, were included. All animals were purchased from Charles River Lab (CRL, MA). […] All three samples from each mouse were analyzed for either Compound I-1 or Compound I-32 contents by Integrated Analytical Solutions (Berkeley, CA) and the results were used for the generation of the pharmacokinetic graphs. […]
property measured: Cmax (µg/mL)
Field: numeric (µg/mL). Do not append units.

1. CC(C)(CCCCc1ccc(CCCCC(C)(C)C(=O)O)cc1)C(=O)O ... 102

Would you kindly look at the next entry?
Incoming: # query: Cmax of entry CC(C)(CCCCc1cccc(CCCCC(C)(C)C(=O)O)c1)C(=O)O
Outgoing: 50.2
